# METHOD DESCRIPTION: recombinant UMI read abundance after kanamycin selection (control-corrected) (log10(CPM+1)); higher = more efficient recombination; extreme values may be limits of the assay; sequences stand for … in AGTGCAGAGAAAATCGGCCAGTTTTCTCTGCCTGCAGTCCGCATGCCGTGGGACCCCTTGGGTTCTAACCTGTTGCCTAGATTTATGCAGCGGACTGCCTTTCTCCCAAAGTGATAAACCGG…AGGTTGGTTTCACT; site = the 11-nt donor;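 also: IS621 bridge recombinase in Escherichia coli cells against a fixed T5 target plasmid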
READOUT NAME: recombinant UMI read abundance (log10)
Response field accepts a number only; no unit should be typed.

Value of measured recombinant UMI read abundance (log10) for the entry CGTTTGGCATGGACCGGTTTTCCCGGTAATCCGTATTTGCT (site CGTTTCGCTAG) : 0

Notebook: GTGCGAGCATGGACCGGTTTTCCCGGTAATCCGTATTTGCA (site GTCCGAGCTTG) , recombinant UMI read abundance (log10) read as 0.724

For record ACAGGAACATGGACCGGTTTTCCCGGTAATCCGTATTTGTC (site ACAGGAACTGA) the listed recombinant UMI read abundance (log10) is 2.43

Quick note, recombinant UMI read abundance (log10) for GCGAAGCCATGGACCGGTTTTCCCGGTAATCCGTATTTGGC (site GCGAAGCCTCC) landed at 0

The measured recombinant UMI read abundance (log10) associated with CGACCAACATGGACCGGTTTTCCCGGTAATCCGTATTTGAT (site GAGGGGCCTTC) reads 0.006

recombinant UMI read abundance (log10) reading for TAGCTGGCATGGACCGGTTTTCCCGGTAATCCGTATTTGAA (site TAGCTTGCTTT) : 0

Noted for GGTACGTCATGGACCGGTTTTCCCGGTAATCCGTATTTGTA (site GGTACGTCTTA) : its recombinant UMI read abundance (log10) reads 0.651

Measured recombinant UMI read abundance (log10) of CACTTCCCATGGACCGGTTTTCCCGGTAATCCGTATTTGCT (site CATTTCCCTAG) : 0

Looking up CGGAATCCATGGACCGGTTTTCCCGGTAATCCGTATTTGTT (site CGGGATCCTTA) , I found its recombinant UMI read abundance (log10) recorded as 0.00923

Input AAGCATGCATGGACCGGTTTTCCCGGTAATCCGTATTTGGG (site AAGCAGGCTCC) . Output recombinant UMI read abundance (log10): 0.0127

Sure, the documented recombinant UMI read abundance (log10) for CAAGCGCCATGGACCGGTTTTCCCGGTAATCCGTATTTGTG (site CAAGGGCCTCA) is 0.0216

Quick note, recombinant UMI read abundance (log10) for TCCAATGCATGGACCGGTTTTCCCGGTAATCCGTATTTGCC (site TCCAATTCTGG) landed at 0

Noted for GCAAAGCCATGGACCGGTTTTCCCGGTAATCCGTATTTGGG (site GCTAAGCCTCC) : its recombinant UMI read abundance (log10) reads 0.0133

# recombinant UMI read abundance (log10) of CGGAGTCCATGGACCGGTTTTCCCGGTAATCCGTATTTGTT (site CGGACTCCTAA) = 0.011

Documented recombinant UMI read abundance (log10) of GCTTGCACATGGACCGGTTTTCCCGGTAATCCGTATTTGAT (site GCTTGCTCTAT) : 0.396

Form field recombinant UMI read abundance (log10), entry CAGGGCCCATGGACCGGTTTTCCCGGTAATCCGTATTTGTG (site CAGGGCCCTCA) : 0.282

GET /value?item= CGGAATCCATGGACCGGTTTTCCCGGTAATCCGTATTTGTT (site GGGAAGCCTAA) &field=recombinant UMI read abundance (log10) returns 0.0234

// recombinant UMI read abundance (log10) value for GCCAACGCATGGACCGGTTTTCCCGGTAATCCGTATTTGAA (site GCCAACGCTTT) : 1.63

The measured recombinant UMI read abundance (log10) associated with AATGAGACATGGACCGGTTTTCCCGGTAATCCGTATTTGGT (site AGTGAGACTAC) reads 1.41

Documented recombinant UMI read abundance (log10) of CAGTCGCCATGGACCGGTTTTCCCGGTAATCCGTATTTGGG (site CAGTCGGCTCC) : 0.0208

Recorded recombinant UMI read abundance (log10) (sequence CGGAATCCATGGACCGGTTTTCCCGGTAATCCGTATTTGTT (site CGGAATCCTTA) ): 1.56

Measured recombinant UMI read abundance (log10), TTAAAGCCATGGACCGGTTTTCCCGGTAATCCGTATTTGGC (site TTAAAGCCTGC) : 0

Field recombinant UMI read abundance (log10) (entry GGTGAGGCATGGACCGGTTTTCCCGGTAATCCGTATTTGGT (site GGTGAGGCTAC) ) reads 1.1

Sure, the documented recombinant UMI read abundance (log10) for CGTTAGACATGGACCGGTTTTCCCGGTAATCCGTATTTGGG (site CGTTAGACTCG) is 0.0116

The value of recombinant UMI read abundance (log10) measured for the sequence GTGATGACATGGACCGGTTTTCCCGGTAATCCGTATTTGGC (site GTGATGACTGC) turned out to be 2.09

Item: ACGTCTACATGGACCGGTTTTCCCGGTAATCCGTATTTGTG (site ACGTCTACTCA) | recombinant UMI read abundance (log10): 0.512

// recorded recombinant UMI read abundance (log10) for CGATCACCATGGACCGGTTTTCCCGGTAATCCGTATTTGAT (site CGATCATCTAG) : 0

recombinant UMI read abundance (log10) reading for CGCAACCCATGGACCGGTTTTCCCGGTAATCCGTATTTGTT (site CGCAACCCTAA) : 0.717

The sequence CCGTTTACATGGACCGGTTTTCCCGGTAATCCGTATTTGCA (site CCGTTTACTCG) showed recombinant UMI read abundance (log10) equal to 0

Entry CTCGTATCATGGACCGGTTTTCCCGGTAATCCGTATTTGAC (site CTTGTATCTGT) , recombinant UMI read abundance (log10) reported as 0

// recombinant UMI read abundance (log10) lookup, sequence = AGACAGGCATGGACCGGTTTTCCCGGTAATCCGTATTTGCT (site AGATAGGCTAG) , result: 0.555

Reported recombinant UMI read abundance (log10) of CTGAAAACATGGACCGGTTTTCCCGGTAATCCGTATTTGCA (site CTGGAAACTTG) : 0

Documented recombinant UMI read abundance (log10) of AACCAAGCATGGACCGGTTTTCCCGGTAATCCGTATTTGAG (site ATCCAAGCTCT) : 0.642

Item: TACTCAGCATGGACCGGTTTTCCCGGTAATCCGTATTTGGA (site TACTCAGCTTC) | recombinant UMI read abundance (log10): 0.619

The value of recombinant UMI read abundance (log10) measured for the sequence TTTGTGGCATGGACCGGTTTTCCCGGTAATCCGTATTTGCT (site TTTGAGGCTAG) turned out to be 0

recombinant UMI read abundance (log10) in this record for GACAAACCATGGACCGGTTTTCCCGGTAATCCGTATTTGAT (site GACAAACCTAA) : 0
